Tested on: Sprague-Dawley rats
Assay: Assessment of wake promotion in Sprague-Dawley rats (EEG/EMG)
Format: in vivo, rat
Conditions: male Sprague-Dawley rats; PO; 3 mpk; dosed at ZT5; 6-hour post-dose period
Each entry below carries its reported Mean cortical activation time (% vehicle treatment).

COMPOUND: Cc1ccnc2c1[C@H]1CC[C@H](CC1)OCC1[C@@H](NS(=O)(=O)C3CC3)CCN1C(=O)CO2 (stereo in doubt) [Compound 92]
EXPERIMENTAL_RESULT: 97.94 % vehicle treatment

Report value only: Mean cortical activation time (% vehicle treatment), Sprague-Dawley rats, CC(C)S(=O)(=O)N[C@H]1CCCN2C(=O)COc3nccnc3[C@H]3CC[C@H](CC3)OCC12 (stereo in doubt) [Compound 66]
141.30 % vehicle treatment

Report value only: Mean cortical activation time (% vehicle treatment), Sprague-Dawley rats, Cc1cccc2c1C1CCC(CC1)OC[C@H]1[C@@H](NS(C)(=O)=O)CCCN1C(=O)CO2 (stereo in doubt) [Compound 2]
182.50 % vehicle treatment

Report value only: Mean cortical activation time (% vehicle treatment), Sprague-Dawley rats, Cc1ccnc2c1[C@H]1CC[C@H](CC1)OCC1[C@@H](NS(=O)(=O)C(F)(F)F)CCN1C(=O)CO2 (stereo in doubt) [Compound 94]
152.81 % vehicle treatment

Report value only: Mean cortical activation time (% vehicle treatment), Sprague-Dawley rats, Cc1ccnc2c1[C@H]1CC[C@H](CC1)OCC1[C@@H](NS(=O)(=O)C(C)C)CCN1C(=O)CO2 (stereo in doubt) [Compound 93]
138.14 % vehicle treatment

Report value only: Mean cortical activation time (% vehicle treatment), Sprague-Dawley rats, O=C1COc2nccnc2[C@H]2CC[C@H](CC2)OCC2[C@@H](NS(=O)(=O)C(F)(F)F)CCCN12 (stereo in doubt) [Compound 98]
84.91 % vehicle treatment

Report value only: Mean cortical activation time (% vehicle treatment), Sprague-Dawley rats, O=C1COc2ccccc2C2CCC(CC2)OC[C@H]2[C@@H](NS(=O)(=O)C3CC3)CCCN12 (stereo in doubt) [Compound 1]
160.00 % vehicle treatment

Report value only: Mean cortical activation time (% vehicle treatment), Sprague-Dawley rats, CS(=O)(=O)N[C@H]1CCCN2C(=O)COc3ccc(O)cc3[C@H]3CC[C@H](CC3)OCC12 (stereo in doubt) [Compound 96]
74.48 % vehicle treatment

Report value only: Mean cortical activation time (% vehicle treatment), Sprague-Dawley rats, Cc1ncnc2c1[C@H]1CC[C@H](CC1)OCC1[C@@H](NS(C)(=O)=O)CCCN1C(=O)CO2 (stereo in doubt) [Compound 27]
138.57 % vehicle treatment

Report value only: Mean cortical activation time (% vehicle treatment), Sprague-Dawley rats, O=C1COc2ncncc2[C@H]2CC[C@H](CC2)OCC2[C@@H](NS(=O)(=O)C3CC3)CCCN12 (stereo in doubt) [Compound 97]
79.25 % vehicle treatment

Report value only: Mean cortical activation time (% vehicle treatment), Sprague-Dawley rats, CC(C)S(=O)(=O)N[C@H]1CCCN2C(=O)COc3ccccc3C3CCC(CC3)OC[C@@H]12 (stereo in doubt) [Compound 3]
204.79 % vehicle treatment

Report value only: Mean cortical activation time (% vehicle treatment), Sprague-Dawley rats, Cc1ncnc2c1[C@H]1CC[C@H](CC1)OCC1[C@@H](NS(=O)(=O)C3CC3)CCCN1C(=O)CO2 (stereo in doubt) [Compound 68]
157.14 % vehicle treatment

Report value only: Mean cortical activation time (% vehicle treatment), Sprague-Dawley rats, Cc1ncnc2c1[C@H]1CC[C@H](CC1)OCC1[C@@H](NS(=O)(=O)C(F)(F)F)CCCN1C(=O)CO2 (stereo in doubt) [Compound 99]
97.17 % vehicle treatment

Report value only: Mean cortical activation time (% vehicle treatment), Sprague-Dawley rats, Cc1ccc2c(c1)C1CCC(CC1)OC[C@H]1[C@@H](NS(C)(=O)=O)CCCN1C(=O)CO2 (stereo in doubt) [Compound 17]
212.31 % vehicle treatment

Report value only: Mean cortical activation time (% vehicle treatment), Sprague-Dawley rats, Cc1ccnc2c1C1CCC(CC1)OC[C@H]1[C@@H](NS(C)(=O)=O)CCCN1C(=O)CO2 (stereo in doubt) [Compound 12]
108.70 % vehicle treatment

Report value only: Mean cortical activation time (% vehicle treatment), Sprague-Dawley rats, O=C1COc2cccc(F)c2[C@H]2CC[C@H](CC2)OCC2[C@@H](NS(=O)(=O)C(F)(F)F)CCCN12 (stereo in doubt) [Compound 95]
312.26 % vehicle treatment

Report value only: Mean cortical activation time (% vehicle treatment), Sprague-Dawley rats, O=C1COc2ncccc2[C@H]2CC[C@H](CC2)OCC2[C@@H](NS(=O)(=O)C(F)(F)F)CCCN12 (stereo in doubt) [Compound 91]
151.55 % vehicle treatment

Report value only: Mean cortical activation time (% vehicle treatment), Sprague-Dawley rats, CC(C)(O)C(=O)N1CC[C@H](NS(C)(=O)=O)[C@@H]1Cc1cccc(-c2cc(F)cc(F)c2)c1F [Reference Compound B, reference compound]
110.4 % vehicle treatment

Report value only: Mean cortical activation time (% vehicle treatment), Sprague-Dawley rats, CC(C)S(=O)(=O)N[C@H]1CCN2C(=O)COc3ncccc3[C@H]3CC[C@H](CC3)OCC12 (stereo in doubt) [Compound 101]
109.66 % vehicle treatment

Report value only: Mean cortical activation time (% vehicle treatment), Sprague-Dawley rats, O=C1COc2nccnc2[C@H]2CC[C@H](CC2)OCC2[C@@H](NS(=O)(=O)C3CC3)CCCN12 (stereo in doubt) [Compound 65]
121.28 % vehicle treatment

// provenance: patent US12006330B2
